// data source = the supplement of paper PMC6555819

- System: PPARg:RXRa 90nM:30nM, anti-RXR (NR concentration 90 nM, RXRa partner concentration 30 nM)
- PROTOCOL_DESCRIPTION: PBM binding z-score (relative to random genomic background probes); higher = stronger binding; sequences stand for … in GC…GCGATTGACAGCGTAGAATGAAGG
Decide by PBM binding z-score: equal to or exceeding 5 means YES, less means NO.

CONSTRUCT_SEQUENCE | LABEL
CGTCGGAGGACAACAGGAGGTCAGAGCTGCCAGA | NO
CGGACTGGGGCAAAGGTTACCATACTCAGTACGA | YES
CAATCTAGGTCACGAAAGGTCAAAGTCGAATGAC | YES
CCTAGTTGGCCAAGGTCACACACGCTATAGGTAC | NO
CTATGTAGGTTAAGGGGGTCAATCAGTTTGAAAG | YES

Check the entry CGAATTAGGTCACCAGGACAGTGAAGAGGTTGGA : does PBM binding z-score equal or exceed 5?
YES

Check the entry TTGAGTAGGTTACGGGGGCATTCAGGGATGAAGA : does PBM binding z-score equal or exceed 5?
YES

Check the entry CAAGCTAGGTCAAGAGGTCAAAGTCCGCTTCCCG : does PBM binding z-score equal or exceed 5?
YES

Check the entry TATACAGGGTCTAAGGCCAGAGTACGAATGTCGA : does PBM binding z-score equal or exceed 5?
NO

Check the entry CTCGAAAGGTCGAGCTCAGGTGAGTATACCAAAC : does PBM binding z-score equal or exceed 5?
NO

Check the entry CGTCAAAGTTCAACTAATGTAACGTAAAGCACGC : does PBM binding z-score equal or exceed 5?
NO

Check the entry TCTTGTAGGTCAAAGGTTAAGAAAGCCGAAGCCT : does PBM binding z-score equal or exceed 5?
YES

---

- System: LXRa:RXRa (NR concentration 270 nM, RXRa partner concentration 90 nM)
- PROTOCOL_DESCRIPTION: PBM binding z-score (relative to random genomic background probes); higher = stronger binding; sequences stand for … in GC…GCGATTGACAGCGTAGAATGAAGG
EXPERIMENTAL_ENDPOINT: PBM binding z-score
Field format: numeric only.

CONSTRUCT_SEQUENCE | PBM binding z-score
CCGAGTAGGCTACGAGGGGGCATTCAGTGCGAAT | 3.15
AGTCAAAGTTCACTAGGCAACGTAAGATTCAGCT | 5.12
CCGAGTAGGTTACGAGGGGGCATTCCGTGCGAAT | 7.17
CGAACTAGGTCAGAACAGGACAGTTAAGGATGAT | 0.929
ATCGAAGGGTCGAAGGTGAGTATACCCACCCGAA | 1.26

Find the measured PBM binding z-score of CATCCAAGGTCAAAGGTCAGTGAAGAGATGACGG and report it.
7.28

Find the measured PBM binding z-score of ATCGAATGGTCGAAGGTGAGTATACCCACCCGAA and report it.
-0.228

Find the measured PBM binding z-score of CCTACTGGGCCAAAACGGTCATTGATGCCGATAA and report it.
-0.427

Find the measured PBM binding z-score of ATCGAAAGGTCGTGAAGTGAGTATACAGAAAGGC and report it.
3.75

Find the measured PBM binding z-score of CCTAGTTGGTCAAGGTCACACATGCTATAGGTAC and report it.
3.69

Find the measured PBM binding z-score of CGAACTAGGTAAAAGGACAGTGAAAGGCGACGTA and report it.
-0.378

Find the measured PBM binding z-score of CGAACTAGGTCACCAGGACAGTCAAGAGGTTGGA and report it.
2.7
